Biological target: T1, GST-human NOGO-A56 (human, UniProt Q9NQC3 586-785)
T1 construct: GST-tagged fusion expressed in E. coli BL21 from pGEX-6P1; also called hNOGO; human NOGO 5+6 GST; not shown: Glutathione S-transferase tag encoded by vector pGEX-6P1 (N-terminal, with vector linker)
T1 sequence: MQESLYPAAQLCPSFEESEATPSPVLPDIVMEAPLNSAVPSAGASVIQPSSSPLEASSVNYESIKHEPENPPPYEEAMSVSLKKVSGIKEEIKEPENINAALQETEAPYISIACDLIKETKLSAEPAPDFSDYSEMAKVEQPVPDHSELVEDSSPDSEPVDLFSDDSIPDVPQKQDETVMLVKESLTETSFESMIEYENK
Test: SPR (Biacore), GST-human NOGO-A56 immobilised, purified antibody as analyte; single experiment
pKd: −log10 of the molar value.
Documented pKd across a set of binders
measuredParameter: pKd

[[record]]
binder = "H20L16 (antibody, human IgG1, kappa, V domains shown, human gamma1 mutated constant region, human kappa; also called H20L16 FL) VH: QVQLVQSGAEVKKPGASVKVSCKASGYTFTSYWMHWVRQAPGQGLEWIGNINPSNGGTNYNEKFKSKATMTRDTSTSTAYMELSSLRSEDTAVYYCELGQGYWGQGTLVTVSS VL: DIVMTQSPLSNPVTLGQPVSISCRSSKSLLYKDGKTYLNWFLQRPGQSPQLLIYLMSTRASGVPDRFSGGGSGTDFTLKISRVEAEDVGVYYCQQLVEYPLTFGQGTKLEIKR"
recordedvalue = 8.79

[[record]]
binder = "H6L13 (antibody, human IgG1, kappa, V domains shown) VH: QVQLVQSGAEVKKPGASVKVSCKASGYTFTSYWMHWVRQAPGQGLEWIGNINPSNGGTNYNEKFKSRATMTRDTSTSTAYMELSSLRSEDTAVYYCELGQGYWGQGTLVTVSS VL: DIVMTQSPLSLPVTLGQPASISCRSSKSLLYKDGKTYLNWFQQRPGQSPQLLIYLMSTRASGVPDRFSGGGSGTDFTLKISRVEAEDVGVYYCQQLVEYPLTFGQGTKLEIKR"
recordedvalue = 8.11

